Test system: K4 kissing-loop RNA reporter;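 note: bound reporter read as fluorescence of individual clusters on recovered sequencing chips by microscopy, with normalized cluster intensities fitted with a binding model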
assay: apparent KD of K4 kissing-loop reporter; higher = weaker reporter binding
conditionParameters: Eterna round: R107; input ligand: none
metricName: apparent KD of K4 kissing-loop reporter (nM)

- AGAGUCAGACAAAAGUCUGGCUCAGCCGAAGGAGCGUCCGAAAGGACAGGUAGGUCGCGGUUGCAUGAGUGAUGUUGAUGUUUUU [KL-SSArg-A23]: 425
- AGUUCUUGCCGAAGGAGCGAGGCAGAGUGAUGUUCUGCAAAGAGGUCGAAAGACCUCCUGCCUCAGGUAGGUCGCGGCAUGAACA [Omei KL Arginine B Exc A v5]: 652
- GUACGCUCUCGAGUGAUGUUCGGUAAUCGCGAGGAUAUCGCUUUUGCGAGAAGGCGCGGAAUGAGGAAACUCGUUCUGAGUGUAC [FMN A 23]: 461
- CGAGUCCUGAGGAGUGAUGUUCCUCGGCCACGAGGACCGGUACGGCCGCCACUCGUUACUCGGGCUUAGUGGCUAGCACUAAGCU [Tirete]: 203
- AAGCAGUCACUCGAAAUCAUCGAAGAUGAACGAGGACCGGUACGGCCGCCACUCGGAGUGAUGUUCCGAAGACUGCAAAAUAAAA [MatMod 1 - Jieux - Exclusion - Tryptophan A]: 475
- UGUGAUGUGUAGUGUUAUGUUUUGAGGGAUACCAGAGUGUUUUUAUUCCCUUGGCAGCUUGAGUGAUGUUUGAUGUUGUUGUUGU [knnumullin]: 232
